subject of test: BDNF/NT-3 growth factors receptor (Rattus norvegicus) (UniProt Q63604)
Sequence (Q63604 whole entry): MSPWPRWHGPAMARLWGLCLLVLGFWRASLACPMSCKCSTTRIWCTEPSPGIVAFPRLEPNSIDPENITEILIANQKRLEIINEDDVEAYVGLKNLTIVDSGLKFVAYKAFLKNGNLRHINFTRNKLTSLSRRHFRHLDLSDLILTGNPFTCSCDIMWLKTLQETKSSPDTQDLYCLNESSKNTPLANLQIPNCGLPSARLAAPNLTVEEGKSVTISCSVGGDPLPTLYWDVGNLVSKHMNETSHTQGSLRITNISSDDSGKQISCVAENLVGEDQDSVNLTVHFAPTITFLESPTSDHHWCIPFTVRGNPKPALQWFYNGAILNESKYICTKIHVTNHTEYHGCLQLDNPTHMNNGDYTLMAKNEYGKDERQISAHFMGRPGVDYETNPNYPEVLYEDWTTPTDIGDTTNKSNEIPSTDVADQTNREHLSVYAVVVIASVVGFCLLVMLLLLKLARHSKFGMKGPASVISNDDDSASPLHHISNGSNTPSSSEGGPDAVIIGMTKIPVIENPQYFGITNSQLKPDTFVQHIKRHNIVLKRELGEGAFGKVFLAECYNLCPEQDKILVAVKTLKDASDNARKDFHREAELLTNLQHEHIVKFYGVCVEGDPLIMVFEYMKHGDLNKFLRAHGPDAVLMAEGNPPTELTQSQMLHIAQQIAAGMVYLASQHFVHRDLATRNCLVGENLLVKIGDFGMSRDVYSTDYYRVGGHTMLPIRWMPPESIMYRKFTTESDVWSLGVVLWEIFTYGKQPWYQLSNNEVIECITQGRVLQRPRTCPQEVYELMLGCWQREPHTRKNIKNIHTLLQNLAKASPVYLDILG
protocol details: Agonist activity at TrkB in E18 Sprague-Dawley rat hippocampal neurons assessed as induction of TrkB autophosphorylation at Tyr490 at 100 uM after 1 hr by Western blotting analysis
Format: functional, tissue-based
details: Hippocampus
Active and inactive are the calls of the source. The rule behind the calls is not given here. *1 amine or outer side, *2 acyl side, *3 side chain or, on linkers, in order; H or OH if unused. Where a SMILES comes first, the peptide text is derived from it. [ ]: non-standard residue; d: D form. ACHC(1S,2S) = O=C([C@H]1CCCC[C@@H]1N[*:1])[*:2]; βAla = NCCC(=O)O
readout type: Activity

CC(C)[C@@H]1NC(=O)[C@H]2CCCC[C@@H]2NC(=O)CCNC(=O)[C@H](CCCCN)NC(=O)[C@H](CO)NC(=O)[C@H](C(C)C)NC(=O)[C@H]2CCCC[C@@H]2NC(=O)CCNC(=O)[C@H](CCCCN)NC(=O)[C@H](CO)NC1=O (cyclo(K[βAla][ACHC(1S,2S)]VSK[βAla][ACHC(1S,2S)]VS)) ... inactive
CC(C)[C@@H]1NC(=O)C2(C)CCN2C(=O)CNC(=O)[C@H](CCCCN)NC(=O)[C@H](CO)NC1=O (mixture of isomers) ... inactive

====

subject of test: BDNF/NT-3 growth factors receptor (Rattus norvegicus)
protocol details: Antagonist activity at TrkB in E18 Sprague-Dawley rat hippocampal neurons assessed as inhibition of BDNF-induced TrkB phosphorylation at Tyr490 at 100 uM preincubated for 1 hr followed by BDNF induction for 10 mins by Western blotting analysis
Format: functional, tissue-based
details: Hippocampus
The source made the active and inactive calls. The calls are words filed in the database; no cut-off is given here. *1 amine or outer side, *2 acyl side, *3 side chain or, on linkers, in order; H or OH if unused. Where a SMILES comes first, the peptide text is derived from it. [ ]: non-standard residue; d: D form. ACHC(1S,2S) = O=C([C@H]1CCCC[C@@H]1N[*:1])[*:2]; X2 = C[C@@]1(C(=O)[*:2])CCN1[*:1]; X1 = C[C@]1(C(=O)[*:2])CCN1[*:1]; Aze = O=C(O)[C@@H]1CCN1; βAla = NCCC(=O)O
Respond with a class label; see Y for active, N for inactive

Please review the entries below; each comes with its answer.
CC(C)[C@@H]1NC(=O)[C@H]2CCCC[C@@H]2NC(=O)CNC(=O)[C@H](CCCCN)NC(=O)[C@H](CO)NC1=O (cyclo(G[ACHC(1S,2S)]VSK)) ... N
CC(C)[C@@H]1NC(=O)C2(C)CCN2C(=O)CNC(=O)[C@H](CCCCN)NC(=O)[C@H](CO)NC1=O (mixture of isomers) ... N
CC(C)[C@@H]1NC(=O)[C@H]2CCCC[C@@H]2NC(=O)CCNC(=O)[C@H](CCCCN)NC(=O)[C@H](CO)NC1=O ... N
N=C(N)NCCC[C@@H]1NC(=O)[C@H](CCCCN)NC(=O)[C@H](CCCCN)NC(=O)[C@H](CO)NC(=O)[C@H](CC(=O)O)NC(=O)[C@H]2CCCC[C@@H]2NC1=O (cyclo(DSKKR[ACHC(1S,2S)])) ... Y
N=C(N)NCCC[C@@H]1NC(=O)[C@H]2CCCC[C@@H]2NC(=O)[C@H](CC(=O)O)NC(=O)[C@H](CO)NC(=O)[C@H](CCCCN)NC(=O)[C@H](CCCCN)NC(=O)[C@H](CCCNC(=N)N)NC(=O)[C@H]2CCCC[C@@H]2NC(=O)[C@H](CC(=O)O)NC(=O)[C@H](CO)NC(=O)[C@H](CCCCN)NC(=O)[C@H](CCCCN)NC1=O (cyclo(D[ACHC(1S,2S)]RKKSD[ACHC(1S,2S)]RKKS)) ... Y
CC(C)[C@@H]1NC(=O)[C@@H]2CCN2C(=O)CCNC(=O)[C@H](CCCCN)NC(=O)[C@H](CO)NC1=O (cyclo([Aze]VSK[βAla])) ... N
CC(C)[C@@H]1NC(=O)[C@@]2(C)CCN2C(=O)CCNC(=O)[C@H](CCCCN)NC(=O)[C@H](CO)NC1=O ... N
CC(C)[C@@H]1NC(=O)[C@]2(C)CCN2C(=O)CNC(=O)[C@H](CCCCN)NC(=O)[C@H](CO)NC(=O)[C@H](C(C)C)NC(=O)[C@@]2(C)CCN2C(=O)CNC(=O)[C@H](CCCCN)NC(=O)[C@H](CO)NC1=O (cyclo(G[X1]VSKG[X2]VSK)) ... Y

Fill in: this test's call for `CC(C)[C@@H]1NC(=O)[C@]2(C)CCN2C(=O)CCNC(=O)[C@H](CCCCN)NC(=O)[C@H](CO)NC1=O` is ___
N

Which outcome did this test record for the compound CC(C)[C@@H]1NC(=O)[C@@H]2CCN2C(=O)CNC(=O)[C@H](CCCCN)NC(=O)[C@H](CO)NC1=O (cyclo([Aze]VSKG)) ?
N

The origin of these recorded values is ChEMBL document CHEMBL1932968.
